Molecular target: CDK16 (WT-GST-CDK16) (Homo sapiens)
Construct: N-terminal GST fusion, full-length, purified from E. coli; with CCNY
Sequence (Q00536 whole entry, the tested form may be a part): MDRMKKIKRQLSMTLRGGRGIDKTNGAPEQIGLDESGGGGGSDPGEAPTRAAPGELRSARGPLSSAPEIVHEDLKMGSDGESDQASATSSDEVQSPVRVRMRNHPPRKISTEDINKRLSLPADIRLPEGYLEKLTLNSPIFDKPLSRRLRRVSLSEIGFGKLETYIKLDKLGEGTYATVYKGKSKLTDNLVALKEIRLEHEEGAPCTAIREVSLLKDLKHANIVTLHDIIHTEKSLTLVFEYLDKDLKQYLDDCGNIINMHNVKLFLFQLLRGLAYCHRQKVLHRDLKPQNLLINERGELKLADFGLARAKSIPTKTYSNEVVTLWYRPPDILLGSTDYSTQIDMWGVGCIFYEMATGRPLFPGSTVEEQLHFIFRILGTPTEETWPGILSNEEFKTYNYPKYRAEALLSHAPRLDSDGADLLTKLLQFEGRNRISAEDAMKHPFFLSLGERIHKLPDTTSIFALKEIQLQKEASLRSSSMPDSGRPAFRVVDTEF
Sequence (Q8ND76 2-341 partner): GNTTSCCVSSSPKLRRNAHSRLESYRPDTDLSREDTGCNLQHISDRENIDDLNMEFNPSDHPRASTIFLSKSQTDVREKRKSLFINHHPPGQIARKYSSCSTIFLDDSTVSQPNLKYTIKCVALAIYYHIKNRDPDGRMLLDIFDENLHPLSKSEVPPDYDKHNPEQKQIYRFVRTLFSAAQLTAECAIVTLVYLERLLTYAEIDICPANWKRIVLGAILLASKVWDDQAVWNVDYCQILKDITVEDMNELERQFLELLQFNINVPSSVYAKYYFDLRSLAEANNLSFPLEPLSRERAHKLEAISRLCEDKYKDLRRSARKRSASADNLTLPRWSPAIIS
Test: in vitro kinase assay with [γ-32P]-ATP, dose response

COMPOUND | IC50, µM
Cc1cccc(Cc2nn(C(C)(C)C)c3ncnc(N)c23)c1 [3MBPP1] | 4.4
